Procedure summary: inhibitors of TNFa-induced NFkB p65 translocation, primary screen, imaging, HUVEC, MLSMR starter and 10KST1 sets (AID 438);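 also: compound added about 3h40 before a 20 min TNFalpha stimulation; signal is the nuclear over cytoplasmic p65 intensity ratio per well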
Test context: HUVEC TNFa-induced p65 nuclear translocation; at 2 µM, stronger effect = higher value, 0% TNFa-plus-vehicle, 100% no-TNFa wells
Attribute: inhibition
Write it as a number; the unit % goes unstated.

>  <Compound>
Cc1ccc(S(=O)(=O)Cn2nnnc2CN(Cc2ccco2)Cc2cccs2)cc1

>  <Display unit>
%

>  <inhibition>
-1.6

$$$$
>  <Compound>
O=c1c2[nH]c3cccc(Cl)c3c2ncn1CCN1CCCCC1

>  <Display unit>
%

>  <inhibition>
-2.8

$$$$
>  <Compound>
CC1=NC(Nc2nc(C)c3ccccc3n2)=NC(C)(C)C1

>  <Display unit>
%

>  <inhibition>
1.5

$$$$
>  <Compound>
CCc1ccc2[nH]c(=O)c(C(c3nnnn3CC3CCCO3)N3CCN4CCCC4C3)cc2c1 (stereo not given)

>  <Display unit>
%

>  <inhibition>
12.3

$$$$
>  <Compound>
Cc1nnc(SCCn2c(N3CCC(Cc4ccccc4)CC3)nc3c2c(=O)[nH]c(=O)n3C)s1

>  <Display unit>
%

>  <inhibition>
-1.1

$$$$
>  <Compound>
CS(=O)(=O)N(CC(=O)NC1CC1)c1cccc(F)c1

>  <Display unit>
%

>  <inhibition>
-2.3

$$$$

# query: inhibition of entry O=C(CSc1nc2cc(Cl)ccc2s1)N1CCN(C(=O)c2ccco2)CC1
2.4

# query: inhibition of entry CCOC(=O)C1=C(Cn2cnc3ccccc32)NC(=O)NC1c1cc(C)ccc1C (stereo not given)
-10.3

# query: inhibition of entry CCN(CCNC(=O)C1CCN(S(=O)(=O)c2cccc3cccnc23)CC1)c1ccccc1
5.8

# query: inhibition of entry CCOCCn1c(CN2CCN(c3cccc(Cl)c3)CC2)nc2c1c(=O)n(C)c(=O)n2C
-15.7

---

Attribute: fluorescence slope
Assayed system: Voltage-gated potassium channel subunit beta-2 (Rattus norvegicus)
Procedure summary: inhibitors of rat Kvbeta2 reductase activity – biochemical, NADPH fluorescence, primary screen (AID 622);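 also: slope of raw intensity against log time taken from 70 to 1610 s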
Test context: recombinant KvBeta, 4-cyanobenzaldehyde reduction, at 10 µM, stronger effect = higher value
Calls of active or inactive are those of the source.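 Rule for the calls: active = fluorescence slope higher than the sample average by over 3 SD (cut at about -0.22 in these data, passing the limit was not always enough); inactive = the rest.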

Below, each entry is followed by its recorded fluorescence slope result.
>  <Compound>
Cc1ccc(C2c3c(oc4ccccc4c3=O)C(=O)N2c2nnc(C(C)C)s2)o1 (stereo unspecified)

>  <Assayed system>
Voltage-gated potassium channel subunit beta-2 (Rattus norvegicus)

>  <fluorescence slope>
-0.436 (inactive)

$$$$
>  <Compound>
O=C(CSCc1n[nH]c(=O)[nH]1)NCCOc1cccc(Oc2ccccc2)c1

>  <Assayed system>
Voltage-gated potassium channel subunit beta-2 (Rattus norvegicus)

>  <fluorescence slope>
-0.417 (inactive)

$$$$
>  <Compound>
COc1cc(C2C(C#N)=C(C)NC3=C2C(=O)CC(C)(C)C3)ccc1O (stereo unspecified)

>  <Assayed system>
Voltage-gated potassium channel subunit beta-2 (Rattus norvegicus)

>  <fluorescence slope>
-0.453 (inactive)

$$$$
>  <Compound>
CC(Oc1ccccc1)C(=O)NC1CCN(Cc2ccccc2)CC1 (stereo unspecified)

>  <Assayed system>
Voltage-gated potassium channel subunit beta-2 (Rattus norvegicus)

>  <fluorescence slope>
-0.418 (inactive)

$$$$

# query: fluorescence slope of entry CCCn1cnc2c(c1=O)c1nc3ccccc3nc1n2Cc1ccccc1OC
-0.483 (inactive)

# query: fluorescence slope of entry CCS(=O)(=O)N1CCC(C(=O)N2CCOCC2)CC1
-0.574 (inactive)

# query: fluorescence slope of entry CCN(CC)S(=O)(=O)c1ccc(Cl)c(C(=O)OC)c1
-0.493 (inactive)

# query: fluorescence slope of entry O=C(Cn1ccc2ccccc2c1=O)NCCC(=O)N1CCN(C(=O)c2ccco2)CC1
-0.503 (inactive)

# query: fluorescence slope of entry O=C1CSC(c2cn(-c3ccccc3)nc2-c2ccccc2)N1Cc1ccco1 (stereo unspecified)
-0.568 (inactive)

# query: fluorescence slope of entry CCOC(=O)C1=C(C)NC(=O)NC1c1ccc(Br)s1 (stereo unspecified)
-0.502 (inactive)

# query: fluorescence slope of entry CCOC(OCC)P(=O)(C(C)C)C(C)C
-0.443 (inactive)
